Test: HepG2 liver cancer cell viability effects, profiling panel, resazurin fluorescence, 24 h, PK04 Diversity Set (AID 1172); also: test concentration not given here
Conditions: higher = more signal
z-score below -0.8 gives Not fulfilled; z-score at or above it gives Fulfilled.

Below are worked cases with known answers.
CC(=O)Nc1cc(Br)ccc1C(=O)O ... Fulfilled
CCOC(=O)[C@H]1C/C=C/C[C@H](C(=O)OCC)C(=O)O[C@H]2[C@@H](OC)O[C@H](CO)[C@@H](OC(=O)Nc3ccc4c(c3)OCO4)[C@@H]2OC1=O ... Not fulfilled
O=C1N(CCS(=O)(=O)c2ccccc2)Cc2ccccc2C[C@]12N=C(c1ccc(OCCCO)cc1)O[C@@H]2c1ccccc1 ... Not fulfilled

Shifting focus to the compound that follows.
Q: I'd appreciate it if you could say whether `CC(C)N1C(=O)c2ccccc2[C@@H](C(=O)NCCCN(C)C)[C@@H]1c1ccc(CO)cc1` has z-score at least equal to -0.8.
Ans: Fulfilled
